Assay: in vitro
Assay type: in vitro ADME
Conditions: human, Caco-2
Procedure: Caco-2 cell monolayers were used to assess the in vitro absorptive permeability of SCY-078 as a predictor of absorption across the gut following oral delivery. The mean apparent permeability for 5 μM SCY-078 in the apical-to-basolateral direction was 8.9 ± 0.78 ×10^−6 cm/s (89 ± 7.8 nm/s), indicating good oral absorption since in this assay permeability values of >10^−6 cm/s are considered predictive of good absorption after oral administration ([9]). […]

molecule: CC(C)[C@@H](C)[C@@]1(C)CC[C@]2(C)[C@H]3CC[C@@H]4[C@@]5(COC[C@@]4(C)[C@@H](OC[C@](C)(N)C(C)(C)C)[C@H](n4ncnc4-c4ccncc4)C5)C3=CC[C@@]2(C)[C@@H]1C(=O)O [SCY-078]
Papp at 2 h, 5 μM, ×10⁻⁶ cm/s: 8.9

====

Assay: in vitro
Assay type: in vitro ADME
Details: human, Caco-2
metric: Papp at 2 h, 5 µM

structure_smiles_string: CC(C)[C@@H](C)[C@@]1(C)CC[C@]2(C)[C@H]3CC[C@@H]4[C@@]5(COC[C@@]4(C)[C@@H](OC[C@](C)(N)C(C)(C)C)[C@H](n4ncnc4-c4ccncc4)C5)C3=CC[C@@]2(C)[C@@H]1C(=O)O
result: ~8.9 ×10⁻⁶ cm/s

====

Assay: Plasma protein binding by equilibrium dialysis
Type: in vitro ADME
Conditions: DBA, pH 7.4; mouse plasma

structure_smiles_string: CC(C)[C@@H](C)[C@@]1(C)CC[C@]2(C)[C@H]3CC[C@@H]4[C@@]5(COC[C@@]4(C)[C@@H](OC[C@](C)(N)C(C)(C)C)[C@H](n4ncnc4-c4ccncc4)C5)C3=CC[C@@]2(C)[C@@H]1C(=O)O
fraction unbound at 24 h: 0.002

====

Test: in vivo
Design: species or system female CD-1 mice
Conditions: female, CD-1, mouse, po, 6.25 mg/kg, t1/2
metric: half-life (h)

structure_smiles_string: CC(C)[C@@H](C)[C@@]1(C)CC[C@]2(C)[C@H]3CC[C@@H]4[C@@]5(COC[C@@]4(C)[C@@H](OC[C@](C)(N)C(C)(C)C)[C@H](n4ncnc4-c4ccncc4)C5)C3=CC[C@@]2(C)[C@@H]1C(=O)O
recorded_number: 7.8

====

Experiment: In vitro metabolic stability in hepatic microsomes
Type: in vitro ADME, mouse
Details: pooled liver microsomes; male mouse liver microsomes

structure_smiles_string: CC(C)[C@@H](C)[C@@]1(C)CC[C@]2(C)[C@H]3CC[C@@H]4[C@@]5(COC[C@@]4(C)[C@@H](OC[C@](C)(N)C(C)(C)C)[C@H](n4ncnc4-c4ccncc4)C5)C3=CC[C@@]2(C)[C@@H]1C(=O)O
microsomal CLint at 1 μM: < 10 µL/min/mg

====

Assay: in vivo
Design: species or system female CD-1 mice
Conditions: female, CD-1, mouse, po, 6.25 mg/kg
metric: AUC(0-inf)

molecule: CC(C)[C@@H](C)[C@@]1(C)CC[C@]2(C)[C@H]3CC[C@@H]4[C@@]5(COC[C@@]4(C)[C@@H](OC[C@](C)(N)C(C)(C)C)[C@H](n4ncnc4-c4ccncc4)C5)C3=CC[C@@]2(C)[C@@H]1C(=O)O [SCY-078]
metric: AUC(0-inf)
result: 9560 ng·h/mL

====

Experiment: pKa values
Format: physicochemical
Details: carboxylic acid

structure_smiles_string: CC(C)[C@@H](C)[C@@]1(C)CC[C@]2(C)[C@H]3CC[C@@H]4[C@@]5(COC[C@@]4(C)[C@@H](OC[C@](C)(N)C(C)(C)C)[C@H](n4ncnc4-c4ccncc4)C5)C3=CC[C@@]2(C)[C@@H]1C(=O)O
pKa: 5.5

====

Assay: Plasma protein binding by equilibrium dialysis, across species
Assay type: in vitro ADME, and human
Conditions: DBA (mouse), Sprague-Dawley (rat), beagle (dog), human, pH 7.4, range across species, 0.1 to 10 μM
metric: fraction unbound at 24 h

compound: CC(C)[C@@H](C)[C@@]1(C)CC[C@]2(C)[C@H]3CC[C@@H]4[C@@]5(COC[C@@]4(C)[C@@H](OC[C@](C)(N)C(C)(C)C)[C@H](n4ncnc4-c4ccncc4)C5)C3=CC[C@@]2(C)[C@@H]1C(=O)O [SCY-078]
result: 0.002 to 0.005

====

Test: in vivo
Set-up: species or system female CD-1 mice
Conditions: female, CD-1, mouse, po, 6.25 mg/kg, AUC0–12
metric: AUC(0-t) (ng·h/mL)

compound: CC(C)[C@@H](C)[C@@]1(C)CC[C@]2(C)[C@H]3CC[C@@H]4[C@@]5(COC[C@@]4(C)[C@@H](OC[C@](C)(N)C(C)(C)C)[C@H](n4ncnc4-c4ccncc4)C5)C3=CC[C@@]2(C)[C@@H]1C(=O)O [SCY-078]
measure_unit: ng·h/mL
recorded_number: 3110

====

Experiment: in vivo
Details: female, CD-1, mouse, kidney, po, 12 mg/kg

compound: CC(C)[C@@H](C)[C@@]1(C)CC[C@]2(C)[C@H]3CC[C@@H]4[C@@]5(COC[C@@]4(C)[C@@H](OC[C@](C)(N)C(C)(C)C)[C@H](n4ncnc4-c4ccncc4)C5)C3=CC[C@@]2(C)[C@@H]1C(=O)O [SCY-078]
half-life, h: 8.9

====

Assay: in vivo
Set-up: species or system Wistar Han rats
Details: both sexes, Wistar Han, rat, iv, 5 mg/kg

compound: CC(C)[C@@H](C)[C@@]1(C)CC[C@]2(C)[C@H]3CC[C@@H]4[C@@]5(COC[C@@]4(C)[C@@H](OC[C@](C)(N)C(C)(C)C)[C@H](n4ncnc4-c4ccncc4)C5)C3=CC[C@@]2(C)[C@@H]1C(=O)O [SCY-078]
AUC(0-t) (ng·h/mL): 10300

====

Assay: in vivo
Set-up: species or system female CD-1 mice
Details: female, CD-1, mouse, po, 12 mg/kg, AUC0–24

compound: CC(C)[C@@H](C)[C@@]1(C)CC[C@]2(C)[C@H]3CC[C@@H]4[C@@]5(COC[C@@]4(C)[C@@H](OC[C@](C)(N)C(C)(C)C)[C@H](n4ncnc4-c4ccncc4)C5)C3=CC[C@@]2(C)[C@@H]1C(=O)O [SCY-078]
measure_unit: ng·h/mL
AUC(0-t): 22500

====

Experiment: in vivo
Set-up: species or system female CD-1 mice
Details: female, CD-1, mouse, po

compound: CC(C)[C@@H](C)[C@@]1(C)CC[C@]2(C)[C@H]3CC[C@@H]4[C@@]5(COC[C@@]4(C)[C@@H](OC[C@](C)(N)C(C)(C)C)[C@H](n4ncnc4-c4ccncc4)C5)C3=CC[C@@]2(C)[C@@H]1C(=O)O [SCY-078]
concentration at 4 h (ng/mL): 1490

====

Test: In vitro metabolic stability in hepatic microsomes
Format: in vitro ADME, dog
Settings: pooled liver microsomes; female dog liver microsomes
metric: half-life at 1 μM (h)

structure_smiles_string: CC(C)[C@@H](C)[C@@]1(C)CC[C@]2(C)[C@H]3CC[C@@H]4[C@@]5(COC[C@@]4(C)[C@@H](OC[C@](C)(N)C(C)(C)C)[C@H](n4ncnc4-c4ccncc4)C5)C3=CC[C@@]2(C)[C@@H]1C(=O)O
metric: half-life at 1 μM
recorded_number: 1.53

====

Assay: In vitro metabolic stability in hepatic microsomes, dog or human summary
Assay type: in vitro ADME
Conditions: both sexes, liver microsomes, dog or human microsomes, read-out: Half-life (t0.5)

compound: CC(C)[C@@H](C)[C@@]1(C)CC[C@]2(C)[C@H]3CC[C@@H]4[C@@]5(COC[C@@]4(C)[C@@H](OC[C@](C)(N)C(C)(C)C)[C@H](n4ncnc4-c4ccncc4)C5)C3=CC[C@@]2(C)[C@@H]1C(=O)O [SCY-078]
half-life at 1 μM: ≥ 29 min

====

Test: logD
Assay type: physicochemical
Details: at PI
metric: logD

structure_smiles_string: CC(C)[C@@H](C)[C@@]1(C)CC[C@]2(C)[C@H]3CC[C@@H]4[C@@]5(COC[C@@]4(C)[C@@H](OC[C@](C)(N)C(C)(C)C)[C@H](n4ncnc4-c4ccncc4)C5)C3=CC[C@@]2(C)[C@@H]1C(=O)O
recorded_number: 4.9

====

Test: Solubility in simulated gastric and intestinal fluids
Assay type: physicochemical
Conditions: fed-state simulated intestinal fluid (FeSSIF), thermodynamic from solid, citrate salt form, FeSSIF

molecule: CC(C)[C@@H](C)[C@@]1(C)CC[C@]2(C)[C@H]3CC[C@@H]4[C@@]5(COC[C@@]4(C)[C@@H](OC[C@](C)(N)C(C)(C)C)[C@H](n4ncnc4-c4ccncc4)C5)C3=CC[C@@]2(C)[C@@H]1C(=O)O [SCY-078]
solubility at 24 h: > 20 mg/mL

====

Experiment: in vivo
Parameters: species or system Wistar Han rats
Conditions: both sexes, Wistar Han, rat, po, 20 mg/kg, t1/2

structure_smiles_string: CC(C)[C@@H](C)[C@@]1(C)CC[C@]2(C)[C@H]3CC[C@@H]4[C@@]5(COC[C@@]4(C)[C@@H](OC[C@](C)(N)C(C)(C)C)[C@H](n4ncnc4-c4ccncc4)C5)C3=CC[C@@]2(C)[C@@H]1C(=O)O
half-life: ~9.1 h

The measurements presented in this section are drawn from paper PMC5365645.
